# Target under test: Poly [ADP-ribose] polymerase 1 (Homo sapiens)
# Assay: Inhibition of PARP1 (unknown origin) incubated for 60 mins by ELISA assay
Reported metric: IC50 (µM)

{"columns": ["Compound", "Target under test", "Result unit", "Val"],
 "data": [
  ["O=C(CSc1nc2sc3c(c2c(=O)[nH]1)CCC3)N(CCO)CCO", "Poly [ADP-ribose] polymerase 1 (Homo sapiens)", "µM", 0.56],
  ["CCN(c1ccccc1)S(=O)(=O)c1ccc(NC(=O)C2CC(=O)c3cc(C)c(C)cc3O2)cc1 (configuration not stated)", "Poly [ADP-ribose] polymerase 1 (Homo sapiens)", "µM", 63]
]}

---

Parameter: logP. Scope: all listed entries.
# Assay: Lipophilicity, logP of compound
# Format: physicochemical
# Applied conditions: octanol/water
Reported metric: logP

{"columns": ["Molecular string", "Reported metric", "Val"],
 "data": [
  ["O=C(c1cc(Cc2n[nH]c(=O)c3ccccc23)ccc1F)N1CCN(C(=O)C2CC2)CC1", "logP", 1.96],
  ["Cn1ncnc1[C@H]1c2n[nH]c(=O)c3cc(F)cc(c23)N[C@@H]1c1ccc(F)cc1", "logP", 2.11],
  ["CNCc1ccc(-c2[nH]c3cc(F)cc4c3c2CCNC4=O)cc1", "logP", 2.45],
  ["NC(=O)c1cccc2cn(-c3ccc([C@@H]4CCCNC4)cc3)nc12", "logP", 2.47]
]}

---

# Target under test: Poly [ADP-ribose] polymerase 1 (Homo sapiens)
# Assay: Inhibition of PARP1 (unknown origin)
pIC50: −log10 of the molar value.

{"columns": ["Molecular string", "pIC50"],
 "data": [
  ["O=C1CCc2cc(-c3ccccc3F)ccc2C2(CCCCC2)N1", 7.72]
]}

---

Entries and their measured pIC50 follow.
# Target under test: UniProtKB P09874
# Assay: Inhibition of PARP1 CD (unknown origin) by colorimetric assay
pIC50: −log10 of the molar value.

{"columns": ["Compound", "pIC50"],
 "data": [
  ["CC1=C(NN)SC(NNS(=O)(=O)c2ccc3[nH]c(=O)c(=O)[nH]c3c2)N1C(=O)c1ccccc1 (centres undefined)", 8.64],
  ["CC(=O)C1=C(C)N(C(=O)c2ccccc2)C(NNS(=O)(=O)c2ccc3[nH]c(=O)c(=O)[nH]c3c2)S1 (centres undefined)", 8.08],
  ["Cc1cc(O)nn1S(=O)(=O)c1ccc2[nH]c(=O)c(=O)[nH]c2c1", 8.06],
  ["CC1=CSC(NNS(=O)(=O)c2ccc3[nH]c(=O)c(=O)[nH]c3c2)N1C(=O)c1ccccc1 (centres undefined)", 8.20]
]}

---

# Assay: Dissociation constant, pKa of the compound under acidic condition
# Type: physicochemical
Reported metric: pKa

{"columns": ["Molecular string", "Val"],
 "data": [
  ["NC(=O)c1cccc2cn(-c3ccc([C@@H]4CCCNC4)cc3)nc12", 14],
  ["Cn1ncnc1[C@H]1c2n[nH]c(=O)c3cc(F)cc(c23)N[C@@H]1c1ccc(F)cc1", 9.48],
  ["O=C(c1cc(Cc2n[nH]c(=O)c3ccccc23)ccc1F)N1CCN(C(=O)C2CC2)CC1", 9.96],
  ["CNCc1ccc(-c2[nH]c3cc(F)cc4c3c2CCNC4=O)cc1", 13.2]
]}

---

# Assay: Solubility of the compound
# Format: physicochemical
// solubility lookup, one value per entry

{"columns": ["Molecular string", "solubility"],
 "data": [
  ["CNCc1ccc(-c2[nH]c3cc(F)cc4c3c2CCNC4=O)cc1", "1000 µg/mL"],
  ["NC(=O)c1cccc2cn(-c3ccc([C@@H]4CCCNC4)cc3)nc12", "700 µg/mL"],
  ["Cn1ncnc1[C@H]1c2n[nH]c(=O)c3cc(F)cc(c23)N[C@@H]1c1ccc(F)cc1", "17 µg/mL"]
]}

---

pIC50: −log10 of the molar value.
The reader will find pIC50 measurements below, all made with Voltage-gated inwardly rectifying potassium channel KCNH2 (Homo sapiens, UniProt Q12809).
Sequence (Q12809 whole entry): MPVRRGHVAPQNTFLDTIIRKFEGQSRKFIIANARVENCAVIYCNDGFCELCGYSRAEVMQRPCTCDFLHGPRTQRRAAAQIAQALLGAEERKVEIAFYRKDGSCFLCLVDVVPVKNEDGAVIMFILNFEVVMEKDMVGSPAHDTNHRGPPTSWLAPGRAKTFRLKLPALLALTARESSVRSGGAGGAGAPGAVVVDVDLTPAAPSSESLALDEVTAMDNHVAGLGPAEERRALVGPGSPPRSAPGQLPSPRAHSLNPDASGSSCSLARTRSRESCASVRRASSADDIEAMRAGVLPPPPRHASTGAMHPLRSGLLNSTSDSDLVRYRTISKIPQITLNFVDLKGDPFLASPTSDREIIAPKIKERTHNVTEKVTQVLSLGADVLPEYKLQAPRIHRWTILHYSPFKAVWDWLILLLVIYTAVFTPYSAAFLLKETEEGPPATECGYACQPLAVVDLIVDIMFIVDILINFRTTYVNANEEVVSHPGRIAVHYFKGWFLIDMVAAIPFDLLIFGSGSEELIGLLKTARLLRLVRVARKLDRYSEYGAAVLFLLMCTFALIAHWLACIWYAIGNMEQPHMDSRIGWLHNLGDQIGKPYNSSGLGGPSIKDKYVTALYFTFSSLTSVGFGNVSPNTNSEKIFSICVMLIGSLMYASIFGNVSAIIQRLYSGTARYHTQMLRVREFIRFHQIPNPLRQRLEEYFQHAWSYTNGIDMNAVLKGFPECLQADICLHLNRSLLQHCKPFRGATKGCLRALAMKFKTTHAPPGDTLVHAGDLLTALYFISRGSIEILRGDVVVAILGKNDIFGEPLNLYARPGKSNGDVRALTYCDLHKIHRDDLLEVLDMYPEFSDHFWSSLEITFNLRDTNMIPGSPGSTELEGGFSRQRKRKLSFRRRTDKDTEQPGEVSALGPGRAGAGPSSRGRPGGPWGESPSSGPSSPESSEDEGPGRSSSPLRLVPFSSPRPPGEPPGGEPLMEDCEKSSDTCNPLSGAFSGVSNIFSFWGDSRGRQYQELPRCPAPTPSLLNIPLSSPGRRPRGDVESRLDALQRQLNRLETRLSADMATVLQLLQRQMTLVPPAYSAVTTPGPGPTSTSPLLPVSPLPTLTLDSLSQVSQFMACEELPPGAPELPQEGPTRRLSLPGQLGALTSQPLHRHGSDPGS

{"columns": ["Molecule", "Target under test", "pIC50"],
 "data": [
  ["NC(=O)c1cccc2cn(-c3ccc([C@@H]4CCCNC4)cc3)nc12 [NIRAPARIB]", "Voltage-gated inwardly rectifying potassium channel KCNH2 (Homo sapiens, UniProt Q12809)", 5.00],
  ["CNCc1ccc(-c2[nH]c3cc(F)cc4c3c2CCNC4=O)cc1 [RUCAPARIB]", "Voltage-gated inwardly rectifying potassium channel KCNH2 (Homo sapiens, UniProt Q12809)", 4.64]
]}

---

# Assay: Dissociation constant, pKa of the compound under basic condition
# Type: physicochemical
// reported pKa for each item listed

{"columns": ["Molecule", "pKa"],
 "data": [
  ["O=C(c1cc(Cc2n[nH]c(=O)c3ccccc23)ccc1F)N1CCN(C(=O)C2CC2)CC1 [OLAPARIB]", 0.9],
  ["NC(=O)c1cccc2cn(-c3ccc([C@@H]4CCCNC4)cc3)nc12 [NIRAPARIB]", 10.1],
  ["CNCc1ccc(-c2[nH]c3cc(F)cc4c3c2CCNC4=O)cc1 [RUCAPARIB]", 9.32],
  ["Cn1ncnc1[C@H]1c2n[nH]c(=O)c3cc(F)cc(c23)N[C@@H]1c1ccc(F)cc1 [TALAZOPARIB]", 1.66]
]}

---

# Assay: Lipophilicity, logD of compound at pH 7.4
# Type: physicochemical
# Applied conditions: buffer

{"columns": ["Molecule", "logD"],
 "data": [
  ["NC(=O)c1cccc2cn(-c3ccc([C@@H]4CCCNC4)cc3)nc12 [NIRAPARIB]", -0.11],
  ["Cn1ncnc1[C@H]1c2n[nH]c(=O)c3cc(F)cc(c23)N[C@@H]1c1ccc(F)cc1 [TALAZOPARIB]", 2.11],
  ["O=C(c1cc(Cc2n[nH]c(=O)c3ccccc23)ccc1F)N1CCN(C(=O)C2CC2)CC1 [OLAPARIB]", 1.96],
  ["CNCc1ccc(-c2[nH]c3cc(F)cc4c3c2CCNC4=O)cc1 [RUCAPARIB]", 0.55]
]}

---

# Target under test: Poly [ADP-ribose] polymerase 1 (Homo sapiens, UniProt P09874)
# Sequence (P09874 whole entry): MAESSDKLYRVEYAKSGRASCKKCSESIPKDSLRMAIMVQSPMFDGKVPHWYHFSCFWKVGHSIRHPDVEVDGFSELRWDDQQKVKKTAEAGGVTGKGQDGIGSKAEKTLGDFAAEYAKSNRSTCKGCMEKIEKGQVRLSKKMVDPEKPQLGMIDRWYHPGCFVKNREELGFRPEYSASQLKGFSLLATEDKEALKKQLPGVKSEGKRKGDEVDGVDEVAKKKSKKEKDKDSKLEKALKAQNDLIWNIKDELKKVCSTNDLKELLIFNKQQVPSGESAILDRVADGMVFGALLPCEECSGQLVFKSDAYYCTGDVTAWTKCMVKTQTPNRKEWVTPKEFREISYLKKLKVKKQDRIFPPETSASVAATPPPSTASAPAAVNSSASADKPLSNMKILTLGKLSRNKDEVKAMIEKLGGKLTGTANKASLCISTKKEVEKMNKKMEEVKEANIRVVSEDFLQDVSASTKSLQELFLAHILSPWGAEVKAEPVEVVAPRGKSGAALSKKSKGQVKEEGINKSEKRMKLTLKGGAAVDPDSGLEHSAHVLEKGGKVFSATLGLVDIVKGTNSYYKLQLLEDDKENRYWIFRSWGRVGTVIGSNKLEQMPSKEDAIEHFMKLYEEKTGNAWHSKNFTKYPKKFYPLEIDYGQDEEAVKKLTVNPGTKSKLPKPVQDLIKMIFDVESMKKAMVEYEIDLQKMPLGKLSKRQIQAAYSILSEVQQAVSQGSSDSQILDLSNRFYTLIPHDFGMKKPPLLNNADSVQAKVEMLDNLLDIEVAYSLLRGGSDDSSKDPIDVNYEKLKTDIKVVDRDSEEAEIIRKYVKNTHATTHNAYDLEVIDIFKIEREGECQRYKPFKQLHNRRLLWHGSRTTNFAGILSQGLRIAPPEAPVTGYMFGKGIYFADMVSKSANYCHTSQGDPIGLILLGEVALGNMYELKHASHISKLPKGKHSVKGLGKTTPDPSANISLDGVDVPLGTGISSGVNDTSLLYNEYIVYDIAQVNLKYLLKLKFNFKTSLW
# Assay: Inhibition of PARP1 (unknown origin) using Streptavidin-HRP as substrate incubated for 1 hr by absorbance based analysis

{"columns": ["Molecular string", "IC50 / nM"],
 "data": [
  ["O=C(NN1CCCC1)c1cc(Cc2n[nH]c(=O)c3cccnc23)ccc1F", 36.7]
]}

---

# Target under test: Poly [ADP-ribose] polymerase 1 (Homo sapiens, UniProt P09874)
# Assay: Inhibition of PARP1 (unknown origin) incubated for 60 mins by absorbance based analysis
pIC50: −log10 of the molar value.
We begin with a simple list: items and their reported pIC50.

{"columns": ["Molecule", "pIC50"],
 "data": [
  ["C[N+]1(C)CCc2cc(O)c(O)cc2[C@H]1Cc1ccc(O)c(O)c1", 5.80],
  ["Oc1ccc(C2CNCc3c(O)cccc32)cc1O (racemic)", 6.62],
  ["C[N+]12CCc3cc(O)c(O)cc3C1Cc1cc3c(cc12)OCO3 (stereo not drawn)", 6.02]
]}

Source of measurements: ChEMBL document CHEMBL5360556
